Target: T1, recombinant human sCD4 CF (manufactured by R&D Systems) (human, UniProt P01730 26-390, limits assumed)
T1 construct: Immobilized on the Biacore sensor chip; also called recombinant CD4; CD4 antigen
Experiment: SPR, Biacore T-200, CD4 immobilized on chip, as in Example 2
I'd appreciate it if you could supply koff values for the items below.
Lab book: enter the figure in s⁻¹, no units written.

Exercise: Recall and state the measured koff for anti-CD4 with barcode 4-1 (VHH, secreted from Pichia pastoris) VHH: EVQLVESGGGSVQPGGSLTLSCGTSGRTFNVMGWFRQAPGKEREFVAAVRWSSTGIYYTQYADSVKSRFTISRDNAKNTVYLEMNSLKPEDTAVYYCAADTYNSNPARWDGYDFRGQGTQVTVSS .
Solution: 0.003

Exercise: Find the measured koff of anti-CD4 with barcode 4-7 (VHH, secreted from Pichia pastoris) VHH: EVQLVESGGGSVQPGGSLTLSCGTSGRTFNVMGWFRQAPGKEREFVAAVRWSSTGIYYTQYADSVKSRFTISRDNAKNTVYLEMNSLKPEDTAVYYCAADTYNSNPARWDGYDFRGQGTQVTVSS and report it.
Solution: 0.0028

Exercise: Identify the reported koff for the following entry. anti-CD4 with barcode 4-6 (VHH, secreted from Pichia pastoris) VHH: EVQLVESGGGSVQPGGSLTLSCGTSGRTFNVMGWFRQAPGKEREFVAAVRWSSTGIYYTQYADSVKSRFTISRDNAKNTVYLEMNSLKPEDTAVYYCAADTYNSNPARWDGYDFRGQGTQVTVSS
Solution: 0.0033

Exercise: Identify measured koff associated with anti-CD4 with barcode 4-5 (VHH, secreted from Pichia pastoris) VHH: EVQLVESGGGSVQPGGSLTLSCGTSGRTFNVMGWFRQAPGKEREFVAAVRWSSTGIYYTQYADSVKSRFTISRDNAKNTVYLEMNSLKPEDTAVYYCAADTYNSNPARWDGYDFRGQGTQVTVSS
Solution: 0.0028
